# Measurement Protocol: Displacement of [3H]methyllycaconitine from chimeric alpha-7nAChR N107A mutant/5HT3A receptor in tsA201 cells
# Format: cell-based, Homo sapiens
Reported Endpoint: log10 of Ki (log10 of the value in nM)
Values reflect log10 of reported Ki (nM).

Molecule | log10 of Ki
C[N+](C)(C)Cc1c2n(c3ccccc13)Cc1c(C[N+](C)(C)C)c3ccccc3n1C2.[I-].[I-] | 4.18

Query block: Reported log10 of Ki for C[N+]12CC[C@@H]3[C@@H]4/C(=C\N5c6ccccc6[C@@]67CC[N+]8(C)CC9=CCO[C@H]([C@@H]([C@H]56)[C@H]9C[C@@H]78)N4c4ccccc4)[C@@H](C[C@@H]31)/C(=C\CO)C2.[I-].[I-] (stereo partly specified) : what is it?
Result block: 3.11

Query block: What do you have for `CCN1C[C@]2(COC(=O)c3ccccc3N3C(=O)C[C@H](C)C3=O)CC[C@H](OC)[C@@]34[C@@H]5C[C@H]6[C@H](OC)[C@@H]5[C@](O)(C[C@@H]6OC)[C@](O)([C@@H](OC)[C@H]23)[C@@H]14` ?
Result block: 0.51

Query block: What do you have for O=[N+]([O-])c1ccc(C[N+]23CC[C@@H]4[C@@H]5[C@@H]6[C@@H](OCC=C(C2)[C@@H]6C[C@@H]43)N2c3ccccc3[C@@]34CC[N+]6(Cc7ccc([N+](=O)[O-])cc7)CC7=CCO[C@H]([C@@H]([C@H]23)[C@H]7C[C@@H]46)N5c2ccccc2)cc1.[Br-].[Br-] (stereo partly specified) ?
Result block: 1.23

Query block: What do you have for C[N+]12CC[C@@H]3[C@@H]4[C@@H]5[C@@H](OCC=C(C1)[C@@H]5C[C@@H]32)N1c2ccccc2[C@@]23CC[N+]5(C)CC6=CCO[C@H]([C@@H]([C@H]12)[C@H]6C[C@@H]35)N4c1ccccc1.[I-].[I-] (stereo partly specified) ?
Result block: 2.52

Query block: What do you have for C1=CC([N+]23CC[C@@H]4[C@@H]5[C@@H]6[C@@H](OCC=C(C2)[C@@H]6C[C@@H]43)N2c3ccccc3[C@@]34CC[N+]6(C7C=CCCC7)CC7=CCO[C@H]([C@@H]([C@H]23)[C@H]7C[C@@H]46)N5c2ccccc2)CCC1.[Br-].[Br-] (stereo partly specified) ?
Result block: 2.86

====

Reported pIC50 by item:
# Target Under Test: Glycine receptor subunit alpha-1 (Homo sapiens)
# Sequence (P23415 whole entry): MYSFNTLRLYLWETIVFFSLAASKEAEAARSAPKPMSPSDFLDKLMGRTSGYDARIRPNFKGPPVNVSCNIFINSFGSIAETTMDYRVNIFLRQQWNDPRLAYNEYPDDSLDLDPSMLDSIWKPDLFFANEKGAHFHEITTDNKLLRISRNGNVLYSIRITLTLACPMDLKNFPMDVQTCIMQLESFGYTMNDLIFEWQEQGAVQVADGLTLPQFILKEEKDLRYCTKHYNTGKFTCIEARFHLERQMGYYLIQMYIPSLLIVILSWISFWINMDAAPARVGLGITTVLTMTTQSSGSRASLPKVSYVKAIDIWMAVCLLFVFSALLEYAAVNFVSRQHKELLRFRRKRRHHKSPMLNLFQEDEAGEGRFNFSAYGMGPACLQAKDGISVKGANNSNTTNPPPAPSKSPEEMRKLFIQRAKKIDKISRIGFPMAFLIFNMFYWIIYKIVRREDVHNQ
# Measurement Protocol: Antagonist activity at human glycine alpha-1 receptor in HEK293 cells by FMP assay
# Type: functional, cell-based
# Experimental Context: hek293

Compound | Target Under Test | Reported Endpoint | Experimental Value
C=CC[N+]12CC[C@@H]3[C@@H]4[C@@H]5[C@@H](OCC=C(C1)[C@@H]5C[C@@H]32)N1c2ccccc2[C@@]23CC[N+]5(CC=C)CC6=CCO[C@H]([C@@H]([C@H]12)[C@H]6C[C@@H]35)N4c1ccccc1.[Br-].[Br-] (some centres not stated) | Glycine receptor subunit alpha-1 (Homo sapiens) | pIC50 | < 4

Proceed to the following item.
Query block: Please state recorded pIC50 (tested on Glycine receptor subunit alpha-1 (Homo sapiens)) of `OC/C=C1/CN2CC[C@H]3[C@@H]2C[C@@H]1/C1=C/N2c4ccccc4[C@@]45CCN6CC7=CCO[C@H]([C@@H]([C@H]24)[C@H]7C[C@H]65)N(c2ccccc2)[C@@H]13`
Result block: < 4

====

# Target Under Test: Neuronal acetylcholine receptor subunit alpha-7 (Homo sapiens, UniProt P36544)
# Sequence (P36544 whole entry): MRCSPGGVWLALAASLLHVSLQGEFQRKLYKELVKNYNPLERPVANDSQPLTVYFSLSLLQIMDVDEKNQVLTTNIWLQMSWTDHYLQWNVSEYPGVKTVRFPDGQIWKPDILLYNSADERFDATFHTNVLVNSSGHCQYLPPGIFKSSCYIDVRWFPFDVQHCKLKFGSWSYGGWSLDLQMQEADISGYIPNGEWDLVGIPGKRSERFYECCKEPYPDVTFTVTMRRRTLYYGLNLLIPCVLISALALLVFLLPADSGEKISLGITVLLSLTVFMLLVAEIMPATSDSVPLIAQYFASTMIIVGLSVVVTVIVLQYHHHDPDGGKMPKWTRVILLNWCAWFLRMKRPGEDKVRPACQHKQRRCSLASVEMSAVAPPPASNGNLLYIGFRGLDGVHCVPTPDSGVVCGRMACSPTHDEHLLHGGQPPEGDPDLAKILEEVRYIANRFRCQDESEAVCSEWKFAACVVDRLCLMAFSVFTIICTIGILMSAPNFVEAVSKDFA
# Measurement Protocol: Displacement of [3H]methyllycaconitine from human alpha-7 in tsA201 cells coexpressed with 5HT3A receptor
# Type: cell-based
# Experimental Context: read-out: pKi (converted)
Reported Endpoint: Ki (nM)
State just the number; it will be interpreted in nM.

Reference set (2 entries):
Compound | Target Under Test | Ki [nM]
CN(C)Cc1c2n(c3ccccc13)Cc1c(CN(C)C)c3ccccc3n1C2 | Neuronal acetylcholine receptor subunit alpha-7 (Homo sapiens, UniProt P36544) | 20000
C/C=C/C[N+]12CC[C@@H]3[C@@H]4[C@@H]5[C@@H](OCC=C(C1)[C@@H]5C[C@@H]32)N1c2ccccc2[C@@]23CC[N+]5(C/C=C/C)CC6=CCO[C@H]([C@@H]([C@H]12)[C@H]6C[C@@H]35)N4c1ccccc1.[Br-].[Br-] (stereo partly drawn) | Neuronal acetylcholine receptor subunit alpha-7 (Homo sapiens, UniProt P36544) | 251

Proceed to the following item.
Query block: Reported Ki for `C[N+](C)(C)Cc1c2n(c3ccccc13)Cc1c(C[N+](C)(C)C)c3ccccc3n1C2.[I-].[I-]` : what is it?
Result block: 2510

====

Reported IC50 by item:
# Target Under Test: 5-hydroxytryptamine receptor 3A (Homo sapiens)
# Sequence (P46098 whole entry): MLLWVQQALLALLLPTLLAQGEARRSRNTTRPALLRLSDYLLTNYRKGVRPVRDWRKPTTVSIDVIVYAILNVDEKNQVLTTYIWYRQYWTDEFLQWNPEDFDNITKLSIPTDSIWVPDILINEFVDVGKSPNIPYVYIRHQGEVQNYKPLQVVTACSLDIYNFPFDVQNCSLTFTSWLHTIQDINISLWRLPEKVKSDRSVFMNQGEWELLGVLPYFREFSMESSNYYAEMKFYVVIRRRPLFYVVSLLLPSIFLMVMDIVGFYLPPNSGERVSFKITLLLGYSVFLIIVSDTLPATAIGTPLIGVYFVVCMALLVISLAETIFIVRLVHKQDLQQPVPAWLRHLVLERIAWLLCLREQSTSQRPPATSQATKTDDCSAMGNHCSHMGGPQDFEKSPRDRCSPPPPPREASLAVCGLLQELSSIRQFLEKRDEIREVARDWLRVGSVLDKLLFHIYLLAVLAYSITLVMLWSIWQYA
# Measurement Protocol: Antagonist activity at human 5HT3A receptor expressed in HEK293 cells by FMP assay
# Assay type: functional, cell-based
# Experimental Context: read-out: IC50
State just the number; it will be interpreted in µM.

Compound | Target Under Test | Unit Annotation | Experimental Value
C[N+]12CC[C@@H]3[C@@H]4/C(=C\N5c6ccccc6[C@@]67CC[N+]8(C)CC9=CCO[C@H]([C@@H]([C@H]56)[C@H]9C[C@@H]78)N4c4ccccc4)[C@@H](C[C@@H]31)/C(=C\CO)C2.[I-].[I-] (stereo partly drawn) | 5-hydroxytryptamine receptor 3A (Homo sapiens) | µM | 4.2
Brc1ccc(C[N+]23CC[C@@H]4[C@@H]5[C@@H]6[C@@H](OCC=C(C2)[C@@H]6C[C@@H]43)N2c3ccccc3[C@@]34CC[N+]6(Cc7ccc(Br)cc7)CC7=CCO[C@H]([C@@H]([C@H]23)[C@H]7C[C@@H]46)N5c2ccccc2)cc1.[Br-].[Br-] (stereo partly drawn) | 5-hydroxytryptamine receptor 3A (Homo sapiens) | µM | 30
C=CC[N+]12CC[C@@H]3[C@@H]4[C@@H]5[C@@H](OCC=C(C1)[C@@H]5C[C@@H]32)N1c2ccccc2[C@@]23CCN5CC6=CCO[C@H]([C@@H]([C@H]12)[C@H]6C[C@H]53)N4c1ccccc1.[Br-] (stereo partly drawn) | 5-hydroxytryptamine receptor 3A (Homo sapiens) | µM | 30
C1=C2C[N+]3(Cc4ccccc4)CC[C@@H]4[C@@H]5[C@H]([C@@H](OC1)N1c6ccccc6[C@@]67CC[N+]8(Cc9ccccc9)CC9=CCO[C@H]([C@@H]([C@H]16)[C@H]9C[C@@H]78)N5c1ccccc1)[C@H]2C[C@@H]43.[Br-].[Br-] (stereo partly drawn) | 5-hydroxytryptamine receptor 3A (Homo sapiens) | µM | 100

Query block: Reported IC50 for COc1ccc(C[N+]23CC[C@@H]4[C@@H]5/C(=C\N6c7ccccc7[C@@]78CC[N+]9(Cc%10ccc(OC)c(OC)c%10)CC%10=CCO[C@H]([C@@H]([C@H]67)[C@H]%10C[C@@H]89)N5c5ccccc5)[C@@H](C[C@@H]42)/C(=C\CO)C3)cc1OC.[Cl-].[Cl-] (stereo partly drawn) : what is it?
Result block: 30

====

# Measurement Protocol: Displacement of [3H]methyllycaconitine from chimeric alpha-7nAChR K145R mutant /5HT3A receptor in tsA201 cells
# Assay type: cell-based, Homo sapiens
Reported Endpoint: Ki (nM)
State just the number; it will be interpreted in nM.

Reference set (5 entries):
Compound | Ki (nM)
C[N+]12CC[C@@H]3[C@@H]4[C@@H]5[C@@H](OCC=C(C1)[C@@H]5C[C@@H]32)N1c2ccccc2[C@@]23CC[N+]5(C)CC6=CCO[C@H]([C@@H]([C@H]12)[C@H]6C[C@@H]35)N4c1ccccc1.[I-].[I-] (stereo partly specified) | 430
C[N+](C)(C)Cc1c2n(c3ccccc13)Cc1c(C[N+](C)(C)C)c3ccccc3n1C2.[I-].[I-] | 5200
C1=CC([N+]23CC[C@@H]4[C@@H]5[C@@H]6[C@@H](OCC=C(C2)[C@@H]6C[C@@H]43)N2c3ccccc3[C@@]34CC[N+]6(C7C=CCCC7)CC7=CCO[C@H]([C@@H]([C@H]23)[C@H]7C[C@@H]46)N5c2ccccc2)CCC1.[Br-].[Br-] (stereo partly specified) | 660
CCN1C[C@]2(COC(=O)c3ccccc3N3C(=O)C[C@H](C)C3=O)CC[C@H](OC)[C@@]34[C@@H]5C[C@H]6[C@H](OC)[C@@H]5[C@](O)(C[C@@H]6OC)[C@](O)([C@@H](OC)[C@H]23)[C@@H]14 [METHYLLYCACONITINE] | 4.3
C[N+]12CC[C@@H]3[C@@H]4/C(=C\N5c6ccccc6[C@@]67CC[N+]8(C)CC9=CCO[C@H]([C@@H]([C@H]56)[C@H]9C[C@@H]78)N4c4ccccc4)[C@@H](C[C@@H]31)/C(=C\CO)C2.[I-].[I-] (stereo partly specified) | 740

Proceed to the following item.
Query block: Reported Ki for O=[N+]([O-])c1ccc(C[N+]23CC[C@@H]4[C@@H]5[C@@H]6[C@@H](OCC=C(C2)[C@@H]6C[C@@H]43)N2c3ccccc3[C@@]34CC[N+]6(Cc7ccc([N+](=O)[O-])cc7)CC7=CCO[C@H]([C@@H]([C@H]23)[C@H]7C[C@@H]46)N5c2ccccc2)cc1.[Br-].[Br-] (stereo partly specified) : what is it?
Result block: 58

Provenance of the data: ChEMBL document CHEMBL1148788
